test system: SNB-75 CNS; assay: NCI-60 one-dose screen, 48 h (100 = growth as untreated, 0 = no growth, -100 = all killed); conditions: 10 µM unless noted
Compounds without any hit were thinned out: in the full panel of roughly 83,000, 20% have a hit.

COMPOUND_STRUCTURE: COc1ccc(-c2ccc(-c3ccc(C(=N)N)cn3)o2)cc1Cl
growth / %: 89.3

COMPOUND_STRUCTURE: Nn1c(-c2ccc(Cl)cc2)nc2c(-c3ccc(Cl)cc3)nc3ccc(Cl)cc3c2c1=O
growth / %: -51.4

COMPOUND_STRUCTURE: COc1cc2ncnc(Nc3ccc(F)c(Cl)c3)c2cc1OCC(=O)N1CCCCC1
growth / %: 87.7

COMPOUND_STRUCTURE: Nc1[nH]nc(Nc2ccccc2)c1-c1nc2ccccc2s1
growth / %: 44.2

COMPOUND_STRUCTURE: COc1cc(N=Nc2ccc(O)c3ncccc23)c2ncccc2c1
growth / %: 41.9

Data provenance is PubChem BioAssay (NCI).
